Reference source: paper PMC5620576

# ASSAY REMARKS: in vivo
# CONDITION CONTEXT: male, Sprague-Dawley, rat, iv, 10 mg/kg

{"columns": ["COMPOUND", "MEASUREMENT UNIT", "clearance"],
 "data": [
  ["COc1cccc2c1C(=O)c1c(O)c3c(c(O)c1C2=O)CC(O)(C(=O)CO)CC3OC1CC(NC(=O)CNC(=O)Oc2ccc(-c3oc4cc(O)cc(O)c4c(=O)c3O)cc2O)C(O)C(C)O1 (stereo not shown) [DoxQ]", "mL/min/kg", 8.83]
]}

---

# ASSAY REMARKS: in vivo
# CONDITION CONTEXT: male, Sprague-Dawley, rat, iv, 10 mg/kg, C0, administered compound intact in rat serum, IV Dox 10 mg/kg or equimolar DoxQ, mean ± SEM

{"columns": ["COMPOUND", "C0"],
 "data": [
  ["COc1cccc2c1C(=O)c1c(O)c3c(c(O)c1C2=O)CC(O)(C(=O)CO)CC3OC1CC(NC(=O)CNC(=O)Oc2ccc(-c3oc4cc(O)cc(O)c4c(=O)c3O)cc2O)C(O)C(C)O1 (stereo not shown) [DoxQ]", "~108 µg/mL"]
]}

---

# ASSAY REMARKS: in vivo
# CONDITION CONTEXT: male, Sprague-Dawley, rat, iv, 10 mg/kg
REPORTED METRIC: CL renal (mL/min/kg)

{"columns": ["COMPOUND", "EXPERIMENTAL RESULT"],
 "data": [
  ["COc1cccc2c1C(=O)c1c(O)c3c(c(O)c1C2=O)CC(O)(C(=O)CO)CC3OC1CC(NC(=O)CNC(=O)Oc2ccc(-c3oc4cc(O)cc(O)c4c(=O)c3O)cc2O)C(O)C(C)O1 (stereo not shown) [DoxQ]", 0.333]
]}

---

# ASSAY REMARKS: Pharmacokinetic study after IV administration, rat serum and urine
# CONDITION CONTEXT: male, Sprague-Dawley, rat, serum, iv, 10 mg/kg

{"columns": ["MOLECULE", "CL renal"],
 "data": [
  ["COc1cccc2c1C(=O)c1c(O)c3c(c(O)c1C2=O)C[C@@](O)(C(=O)CO)C[C@@H]3O[C@H]1C[C@H](N)[C@H](O)[C@H](C)O1", "4.67 mL/min/kg"]
]}

---

# ASSAY REMARKS: Pharmacokinetic study after IV administration, rat serum and urine
# CONDITION CONTEXT: male, Sprague-Dawley, rat, serum, iv, 10 mg/kg

{"columns": ["MOLECULE", "k el"],
 "data": [
  ["COc1cccc2c1C(=O)c1c(O)c3c(c(O)c1C2=O)C[C@@](O)(C(=O)CO)C[C@@H]3O[C@H]1C[C@H](N)[C@H](O)[C@H](C)O1 [Dox, Doxorubicin]", "4.44e-05 s⁻¹"]
]}

---

# ASSAY REMARKS: Pharmacokinetic study after IV administration, rat serum and urine
# CONDITION CONTEXT: male, Sprague-Dawley, rat, serum, iv, 10 mg/kg, C0, administered compound intact in rat serum; IV Dox 10 mg/kg or equimolar DoxQ; mean ± SEM

{"columns": ["MOLECULE", "C0"],
 "data": [
  ["COc1cccc2c1C(=O)c1c(O)c3c(c(O)c1C2=O)C[C@@](O)(C(=O)CO)C[C@@H]3O[C@H]1C[C@H](N)[C@H](O)[C@H](C)O1 [Dox, Doxorubicin]", "~25 µg/mL"]
]}

---

# ASSAY REMARKS: in vivo
# CONDITION CONTEXT: male, Sprague-Dawley, rat, serum, po, 10 mg/kg, F, Dox after PO Dox 10 mg/kg, n = 3

{"columns": ["MOLECULE", "bioavailability"],
 "data": [
  ["COc1cccc2c1C(=O)c1c(O)c3c(c(O)c1C2=O)C[C@@](O)(C(=O)CO)C[C@@H]3O[C@H]1C[C@H](N)[C@H](O)[C@H](C)O1", "~8.5%"]
]}

---

# ASSAY REMARKS: in vivo
# CONDITION CONTEXT: male, Sprague-Dawley, rat, iv, 10 mg/kg, Vss, administered compound intact, IV Dox 10 mg/kg or equimolar DoxQ, mean ± SEM

{"columns": ["COMPOUND", "MEASUREMENT UNIT", "Vd"],
 "data": [
  ["COc1cccc2c1C(=O)c1c(O)c3c(c(O)c1C2=O)CC(O)(C(=O)CO)CC3OC1CC(NC(=O)CNC(=O)Oc2ccc(-c3oc4cc(O)cc(O)c4c(=O)c3O)cc2O)C(O)C(C)O1 (stereo not shown)", "L/kg", 0.138]
]}

---

# ASSAY REMARKS: Pharmacokinetic study after IV administration, rat serum and urine
# CONDITION CONTEXT: male, Sprague-Dawley, rat, serum, iv, 10 mg/kg

{"columns": ["MOLECULE", "AUC(0-t) [ng·h/mL]"],
 "data": [
  ["COc1cccc2c1C(=O)c1c(O)c3c(c(O)c1C2=O)C[C@@](O)(C(=O)CO)C[C@@H]3O[C@H]1C[C@H](N)[C@H](O)[C@H](C)O1", 3970]
]}

---

# ASSAY REMARKS: Pharmacokinetic study after IV administration, rat serum and urine
# CONDITION CONTEXT: male, Sprague-Dawley, rat, serum, iv, 10 mg/kg

{"columns": ["MOLECULE", "clearance / mL/min/kg"],
 "data": [
  ["COc1cccc2c1C(=O)c1c(O)c3c(c(O)c1C2=O)C[C@@](O)(C(=O)CO)C[C@@H]3O[C@H]1C[C@H](N)[C@H](O)[C@H](C)O1", 43.8]
]}

---

# ASSAY REMARKS: Pharmacokinetic study after IV administration, rat serum and urine
# CONDITION CONTEXT: male, Sprague-Dawley, rat, serum, iv, 10 mg/kg, Vss, administered compound intact; IV Dox 10 mg/kg or equimolar DoxQ; mean ± SEM

{"columns": ["MOLECULE", "Vd (L/kg)"],
 "data": [
  ["COc1cccc2c1C(=O)c1c(O)c3c(c(O)c1C2=O)C[C@@](O)(C(=O)CO)C[C@@H]3O[C@H]1C[C@H](N)[C@H](O)[C@H](C)O1", 6.35]
]}
